- Tested on: Escherichia coli TOP10
- protocolDetails: shrunken log2 fold change of peptide-encoding DNA abundance (4.5 h post-induction vs induction); higher = less antimicrobial activity (less host growth inhibition)
- measurementParameters: time post-induction: 4.5 h; library: site-saturation at positions 5, 18, 19, 20
measureName: shrunken log2 fold change
Would you mind answering with just the numeric figure?

Recorded shrunken log2 fold change of `RRIRWRPPRLPRPRPRPKEMPRP` , please.
0.476

Recorded shrunken log2 fold change of `RRIRDRPPRLPRPRPRPMYFPRP` , please.
-0.358

Next:
Recorded shrunken log2 fold change of `RRIRTRPPRLPRPRPRPQWFPRP` , please.
-0.0925

====

- Test system: Escherichia coli TOP10
- protocolDetails: shrunken log2 fold change of peptide-encoding DNA abundance (4.5 h post-induction vs induction); higher = less antimicrobial activity (less host growth inhibition)
- measurementParameters: time post-induction: 4.5 h; library: site-saturation at positions 5, 18, 19, 20
measureName: shrunken log2 fold change
Would you mind answering with just the numeric figure?

# annotated cases, reported shrunken log2 fold change shown
Recorded shrunken log2 fold change of `RRIRLRPPRLPRPRPRPHKFPRP` , please.
-0.138

Recorded shrunken log2 fold change of `RRIRRRPPRLPRPRPRPPIFPRP` , please.
0.16

Recorded shrunken log2 fold change of `RRIRVRPPRLPRPRPRPAELPRP` , please.
0.175

Recorded shrunken log2 fold change of `RRIRRRPPRLPRPRPRPWRCPRP` , please.
0.175

Recorded shrunken log2 fold change of `RRIRCRPPRLPRPRPRPWMEPRP` , please.
-0.344

Recorded shrunken log2 fold change of `RRIRWRPPRLPRPRPRPDKWPRP` , please.
-0.161

Recorded shrunken log2 fold change of `RRIRVRPPRLPRPRPRPAEYPRP` , please.
-0.124

Recorded shrunken log2 fold change of `RRIRNRPPRLPRPRPRPQQNPRP` , please.
0.00594

Next:
Recorded shrunken log2 fold change of `RRIRKRPPRLPRPRPRPDCDPRP` , please.
0.095

Recorded shrunken log2 fold change of `RRIRIRPPRLPRPRPRPQNHPRP` , please.
-0.871

Recorded shrunken log2 fold change of `RRIRCRPPRLPRPRPRPWSEPRP` , please.
-0.0285

Recorded shrunken log2 fold change of `RRIRSRPPRLPRPRPRPVLNPRP` , please.
-0.169

Recorded shrunken log2 fold change of `RRIRFRPPRLPRPRPRPCQCPRP` , please.
-0.035

Recorded shrunken log2 fold change of `RRIRMRPPRLPRPRPRPGNLPRP` , please.
0.0466

Recorded shrunken log2 fold change of `RRIRGRPPRLPRPRPRPKYTPRP` , please.
0.101

Recorded shrunken log2 fold change of `RRIRQRPPRLPRPRPRPQVQPRP` , please.
-0.00173

Recorded shrunken log2 fold change of `RRIRERPPRLPRPRPRPCEPPRP` , please.
0.123

Recorded shrunken log2 fold change of `RRIRPRPPRLPRPRPRPCWRPRP` , please.
0.00714

====

- Test system: Escherichia coli TOP10
- protocolDetails: shrunken log2 fold change of peptide-encoding DNA abundance (4.5 h post-induction vs induction); higher = less antimicrobial activity (less host growth inhibition)
- measurementParameters: time post-induction: 4.5 h; library: site-saturation at positions 5, 18, 19, 20
So basically: shrunken log2 fold change at -0.2 or higher? That is fulfilled. Lower than -0.2? That is not fulfilled.

Please review the following examples before continuing.
Test whether the sequence `RRIRDRPPRLPRPRPRPRNYPRP` records shrunken log2 fold change of -0.2 or higher.
not fulfilled

Test whether the sequence `RRIRCRPPRLPRPRPRPAERPRP` records shrunken log2 fold change of -0.2 or higher.
fulfilled

Test whether the sequence `RRIRYRPPRLPRPRPRPRICPRP` records shrunken log2 fold change of -0.2 or higher.
fulfilled

Test whether the sequence `RRIRMRPPRLPRPRPRPPEYPRP` records shrunken log2 fold change of -0.2 or higher.
fulfilled

Next:
Test whether the sequence `RRIRWRPPRLPRPRPRPEMAPRP` records shrunken log2 fold change of -0.2 or higher.
fulfilled

Test whether the sequence `RRIRPRPPRLPRPRPRPQVKPRP` records shrunken log2 fold change of -0.2 or higher.
fulfilled

Test whether the sequence `RRIRTRPPRLPRPRPRPMRNPRP` records shrunken log2 fold change of -0.2 or higher.
fulfilled

====

- Test system: Escherichia coli TOP10
- protocolDetails: shrunken log2 fold change of peptide-encoding DNA abundance (4.5 h post-induction vs induction); higher = less antimicrobial activity (less host growth inhibition)
- measurementParameters: time post-induction: 4.5 h; library: site-saturation at positions 5, 18, 19, 20
measureName: shrunken log2 fold change
Would you mind answering with just the numeric figure?

# annotated cases, reported shrunken log2 fold change shown
Recorded shrunken log2 fold change of `RRIRMRPPRLPRPRPRPCWHPRP` , please.
-0.0624

Recorded shrunken log2 fold change of `RRIRQRPPRLPRPRPRPMDAPRP` , please.
0.05

Recorded shrunken log2 fold change of `RRIRERPPRLPRPRPRPVVTPRP` , please.
-0.95

Recorded shrunken log2 fold change of `RRIRDRPPRLPRPRPRPGDGPRP` , please.
0.85

Next:
Recorded shrunken log2 fold change of `RRIRHRPPRLPRPRPRPDYTPRP` , please.
-0.00281

Recorded shrunken log2 fold change of `RRIRWRPPRLPRPRPRPYSEPRP` , please.
-0.0145

Recorded shrunken log2 fold change of `RRIRRRPPRLPRPRPRPRMCPRP` , please.
0.17

Recorded shrunken log2 fold change of `RRIRVRPPRLPRPRPRPYPHPRP` , please.
-0.342

Recorded shrunken log2 fold change of `RRIRGRPPRLPRPRPRPQFWPRP` , please.
0.553

Recorded shrunken log2 fold change of `RRIRYRPPRLPRPRPRPRGPPRP` , please.
0.127

Recorded shrunken log2 fold change of `RRIRERPPRLPRPRPRPFNYPRP` , please.
-0.273

Recorded shrunken log2 fold change of `RRIRERPPRLPRPRPRPLARPRP` , please.
0.179

Recorded shrunken log2 fold change of `RRIRARPPRLPRPRPRPTARPRP` , please.
0.874

Recorded shrunken log2 fold change of `RRIRARPPRLPRPRPRPQFWPRP` , please.
0.148

Recorded shrunken log2 fold change of `RRIRYRPPRLPRPRPRPAWQPRP` , please.
0.0499

Recorded shrunken log2 fold change of `RRIRARPPRLPRPRPRPLTSPRP` , please.
0.209

Recorded shrunken log2 fold change of `RRIRIRPPRLPRPRPRPFIQPRP` , please.
-0.551

Recorded shrunken log2 fold change of `RRIRQRPPRLPRPRPRPRPVPRP` , please.
0.336

Recorded shrunken log2 fold change of `RRIRCRPPRLPRPRPRPWKFPRP` , please.
-0.318

Recorded shrunken log2 fold change of `RRIRARPPRLPRPRPRPMPLPRP` , please.
-0.0326

Recorded shrunken log2 fold change of `RRIRDRPPRLPRPRPRPFRIPRP` , please.
0.0432

====

- System: Escherichia coli TOP10
- protocolDetails: shrunken log2 fold change of peptide-encoding DNA abundance (4.5 h post-induction vs induction); higher = less antimicrobial activity (less host growth inhibition)
- measurementParameters: time post-induction: 4.5 h; library: site-saturation at positions 5, 18, 19, 20
measureName: shrunken log2 fold change
Would you mind answering with just the numeric figure?

# annotated cases, reported shrunken log2 fold change shown
Recorded shrunken log2 fold change for `RRIRARPPRLPRPRPRPMTWPRP` with Escherichia coli TOP10, please?
0.307

Recorded shrunken log2 fold change for `RRIRIRPPRLPRPRPRPCPRPRP` with Escherichia coli TOP10, please?
-0.185

Recorded shrunken log2 fold change for `RRIRGRPPRLPRPRPRPPKSPRP` with Escherichia coli TOP10, please?
0.616

Recorded shrunken log2 fold change for `RRIRHRPPRLPRPRPRPSCNPRP` with Escherichia coli TOP10, please?
-0.599

Next:
Recorded shrunken log2 fold change for `RRIRKRPPRLPRPRPRPDCLPRP` with Escherichia coli TOP10, please?
-0.116

====

- Test system: Escherichia coli TOP10;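 note: peptides expressed intracellularly from a pBAD plasmid library in pooled LB shake-flask culture, induced with 0.3% L-arabinose, DNA abundance read by NGS, three biological replicates, DESeq2 with apeglm shrinkage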
- protocolDetails: shrunken log2 fold change of peptide-encoding DNA abundance (4.5 h post-induction vs induction); higher = less antimicrobial activity (less host growth inhibition)
- measurementParameters: time post-induction: 4.5 h; library: site-saturation at positions 5, 18, 19, 20
Known shrunken log2 fold change of a selection of sequences
Would you mind answering with just the numeric figure?

# annotated cases, reported shrunken log2 fold change shown
Recorded shrunken log2 fold change of `RRIRFRPPRLPRPRPRPGDPPRP` , please.
0.566

Recorded shrunken log2 fold change of `RRIRNRPPRLPRPRPRPIREPRP` , please.
-0.0204

Recorded shrunken log2 fold change of `RRIRERPPRLPRPRPRPNQWPRP` , please.
0.062

Recorded shrunken log2 fold change of `RRIRSRPPRLPRPRPRPEIYPRP` , please.
-0.295

Recorded shrunken log2 fold change of `RRIRKRPPRLPRPRPRPSMMPRP` , please.
0.677

Next:
Recorded shrunken log2 fold change of `RRIRVRPPRLPRPRPRPIIGPRP` , please.
0.0272

Recorded shrunken log2 fold change of `RRIRGRPPRLPRPRPRPSSQPRP` , please.
0.099

Recorded shrunken log2 fold change of `RRIRNRPPRLPRPRPRPDYCPRP` , please.
-0.00677

Recorded shrunken log2 fold change of `RRIRPRPPRLPRPRPRPCRWPRP` , please.
0.0987

Recorded shrunken log2 fold change of `RRIRRRPPRLPRPRPRPKRVPRP` , please.
0.298

Recorded shrunken log2 fold change of `RRIRIRPPRLPRPRPRPQYCPRP` , please.
-0.15

Recorded shrunken log2 fold change of `RRIRQRPPRLPRPRPRPFVFPRP` , please.
-0.273

Recorded shrunken log2 fold change of `RRIRGRPPRLPRPRPRPVLFPRP` , please.
0.752
